Give measured activity for each item. Keep answers brief.
target: Nicotinamide N-methyltransferase (Homo sapiens) (UniProt P40261); assay: Confirmatory Screen for Target Class Profiling of Small Molecule Inhibitors of Methyltransferases (AID 1745852); conditions: MTase-Glo luminescence, SAH detection, recombinant enzyme; measured here: NNMT max response; stronger effect = lower value
Sequence (P40261 whole entry, looked up): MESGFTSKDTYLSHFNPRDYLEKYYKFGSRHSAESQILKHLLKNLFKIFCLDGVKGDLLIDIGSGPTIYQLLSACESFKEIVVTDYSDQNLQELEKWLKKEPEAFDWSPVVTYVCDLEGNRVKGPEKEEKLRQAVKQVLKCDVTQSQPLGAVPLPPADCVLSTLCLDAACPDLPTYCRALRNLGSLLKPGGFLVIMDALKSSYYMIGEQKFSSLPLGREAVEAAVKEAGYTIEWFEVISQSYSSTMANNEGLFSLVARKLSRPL
One number for each entry, in %.

Guide cases for activity, answers given:
INSERT INTO assay_data (molecule, system_name, unit_label, result_number) VALUES
  ('Cc1sc2ccccc2c1CC1=NCCN1', 'Nicotinamide N-methyltransferase (Homo sapiens) (UniProt P40261)', '%', -6.99),
  ('CNc1ccc2oc(C[C@H]3O[C@@]4(CC[C@H]3C)O[C@H]([C@H](C)C(=O)c3ccc[nH]3)[C@H](C)C[C@H]4C)nc2c1C(=O)O', 'Nicotinamide N-methyltransferase (Homo sapiens) (UniProt P40261)', '%', -35.2),
  ('N#C/C(=C/c1ccc(O)c(O)c1)C(N)=S', 'Nicotinamide N-methyltransferase (Homo sapiens) (UniProt P40261)', '%', -5.97),
  ('CCCN1CCc2cccc3c2[C@H]1Cc1ccc(O)c(O)c1-3', 'Nicotinamide N-methyltransferase (Homo sapiens) (UniProt P40261)', '%', -3.62),
  ('CCCN(CCC)CCc1ccc(O)c(O)c1', 'Nicotinamide N-methyltransferase (Homo sapiens) (UniProt P40261)', '%', -2.74),
  ('CC(C)(C)c1cc(C=C(C#N)C#N)cc(C(C)(C)C)c1O', 'Nicotinamide N-methyltransferase (Homo sapiens) (UniProt P40261)', '%', -20.4),
  ('c1ccc2cc(CC3=NCCN3)ccc2c1', 'Nicotinamide N-methyltransferase (Homo sapiens) (UniProt P40261)', '%', 0.294),
  ('CCCCCOc1cc2c(cc1-c1cc(/C=C/C(=O)O)ccc1O)C(C)(C)CCC2(C)C', 'Nicotinamide N-methyltransferase (Homo sapiens) (UniProt P40261)', '%', -28.2);

Now turn to the next molecule.
Input CC(N)c1cccc(Cl)c1Cl (centres undefined) , output reported activity.
-1.94

---

assay: MultiTox-Fluor Cytotoxicity Assay - LYMP1-002 - Dead Cells (AID 960); conditions: LYMP1-002 lymphoblastoid cells, dead-cell protease fluorescence; series mostly up to 46.1 µM;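 note: cells exposed to compound for 16 h at 37 °C; 0% = DMSO and 100% = tetraoctylammonium bromide; nearly all actives have a fitted effect of over 60% in size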
Results filed as inconclusive are left out. The source made the active and inactive calls. Calls come from the whole dose curve; as a rule, active = well fitted cell-killing curve with a large enough effect; inconclusive = small, poorly fitted or top-dose-only effect, or effect the other way; inactive = no such curve, though single readings can be large or run the other way.
ASSAY READOUT: outcome

Examples with answers:
INSERT INTO measurements (compound, result) VALUES
  ('ClCC1CO1 (stereo unspecified)', 'inactive'),
  ('CC(C)(C)c1cc(O)ccc1O', 'inactive'),
  ('[O]=[Cd]', 'inactive'),
  ('Oc1cc(Cl)c(Cl)cc1Cl', 'inactive'),
  ('COC1=CC(=O)O[C@@H](/C=C/c2ccccc2)C1', 'inactive');

Hey, quick one: what's outcome for each of these?
1. CCOC(=O)c1ccccc1C(=O)OCC
2. NNC(N)=O
3. C[C@H]1CC[C@@H]2[C@@H](C)[C@H]3[C@H](C[C@H]4[C@@H]5CC=C6CC(O[C@@H]7O[C@H](CO)[C@H](O)[C@H](O[C@@H]8O[C@H](CO)[C@@H](O)[C@H](O)[C@H]8O)[C@H]7O[C@H]7O[C@@H](C)[C@H](O)[C@@H](O)[C@H]7O)CC[C@]6(C)[C@H]5CC[C@]34C)N2C1 (stereo partly specified)

1: inactive; 2: inactive; 3: inactive

Hey, just so you know, these numbers are from PubChem BioAssay (NCATS).
